Reference source: PubChem BioAssay (NCATS)

- Assay: Primary qHTS to identify inhibitors of SARS-CoV-2 cell entry (AID 1645846); further: nearly all actives have a fitted effect of over 45% in size
- Experimental Context: SARS-CoV-2 pseudovirus cell entry assay, luminescence; series mostly up to 57.1 µM
Records with an inconclusive call do not appear. Active and inactive are the calls of the source. The call rests on the fitted dose curve. Square brackets hold non-standard residues; d marks the D form. Peptide text beside a SMILES is read from it. * marks the point of attachment. Nva = CCC[C@H](N)C(=O)O; Cbz = O=C(OCc1ccccc1)*
Please reply with one of these outcomes: active, inactive

# Compound, Group
records = [
    ("C=CC(=O)Nc1cccc(Sc2nc(Nc3ccc(N4CCN(C)CC4)cc3)ncc2Cl)c1", "active"),
]

Query string: // param item: CCC[C@@H](C=O)NC(=O)[C@H](CC(C)C)NC(=O)[C@H](CC(C)C)NC(=O)OCc1ccccc1 (Cbz-Leu-Leu-[Nva]-aldehyde) ; yields the recorded call
Result string: active

Query string: Try this compound next: Cc1cc(Nc2ncnc3ccc(-c4ccc(CNCCS(C)(=O)=O)o4)cc23)ccc1Oc1ccn2ncnc2c1
Result string: inactive

Query string: Follow-up entry: Cc1nc(N)ncc1-c1nc(N2CCOCC2)c2sc(C(C)(C)O)cc2n1
Result string: active

Query string: Follow-up entry: Cc1cccc([C@H](C)c2cnc[nH]2)c1C
Result string: inactive

Query string: Next compound: CCOc1ccccc1N=Nc1c(C)[nH]n(-c2nc(-c3ccccc3)cs2)c1=O
Result string: inactive

Query string: Proceed to O=C1CN2Cc3c(ccc(Cl)c3Cl)N=C2N1
Result string: inactive

Query string: Now try N[C@@]1(C(=O)O)CS(=O)(=O)[C@H]2[C@H](C(=O)O)[C@H]21 .
Result string: inactive

Query string: O=C(O)c1ccccc1C(=O)Nc1ccc(-c2ccccc2)cc1 , same question.
Result string: inactive

----------
- Assay: Cytotoxicity counterscreen for inhibitors of SARS-CoV-2 cell entry (AID 1645845); further: nearly all actives have a fitted effect of over 50% in size
- Experimental Context: cell viability (SARS-CoV-2 entry assay cells); series mostly up to 57.1 µM
- Experimental: Assay Provider: Wei Zheng, Ph.D. National Center for Advancing Translational Sciences, National Institute of Health, Rockville, MD. SARS-CoV-2 spike protein, within the viral envelope, mediates viral attachment and infection of host cells. The SARS-CoV-2 spike protein specifically binds to the host receptor ACE2 (Angiotensin-converting enzyme 2). […] 7. […] Dispense 4 uL/well of ATPLite 1step luminescence assay reagent (PerkinElmer #6016739). […] 9. […] Read luminescence signal (Viewlux plate reader, PerkinElmer). […]
Results filed as inconclusive are left out. Calls of active or inactive are those of the source. The call rests on the fitted dose curve.
Form entry, call: pick from t for active, f for inactive

# Molecule, Group
measured = [
    ("Cc1cccc(-c2[nH]c(C(C)(C)C)nc2-c2ccc3c(c2)OCO3)n1", "t"),
    ("CC1CCN(c2cc(N3CCN(C)CC3)ccc2NC(=O)c2cc(C#N)c[nH]2)CC1", "f"),
    ("Cc1cc(O)c2c(c1)C(=O)c1cc(O)cc(O)c1C2=O", "f"),
    ("O=C(O)CCCc1c[nH]c2ccccc12", "f"),
    ("CCOC(=O)C1=C(N)Oc2ccc(Br)cc2C1C(C#N)C(=O)OCC (centres undefined)", "f"),
    ("COC1CCC(N(C(=O)C2CCC(C)CC2)c2cc(C3=CCCCC3)sc2C(=O)O)CC1 (centres undefined)", "f"),
    ("O=C(O)C(O)Cc1ccc(O)c(O)c1 (centres undefined)", "f"),
    ("CCNCc1nc2c(N)nc3ccccc3c2n1CC(C)(C)O", "f"),
]

Query string: Test call, this molecule: C[C@H](NC(=O)c1sccc1OCc1ccc(Cl)cc1)c1ccccc1
Result string: f

Query string: Quick one: O=C(O)CCCCCC(=O)NN=C1CCCC1
Result string: f

Query string: Next entry: CCc1ccc(Cc2ccc3c(c2)[C@]2(OC3)O[C@H](CO)[C@@H](O)[C@H](O)[C@H]2O)cc1
Result string: f

Query string: Now consider Cc1cnc(C(=O)O)c[n+]1[O-] and answer again.
Result string: f

Query string: Now the same for CN1c2cc(O)c(N=NC(N)=O)cc2CC1S(=O)(=O)O (centres undefined)
Result string: f

Query string: Same again, this time with O=c1[nH]nc(OCCCc2ccc(Cl)cc2)c(NCc2cccnc2)c1Br
Result string: f

----------
- System: Tov112D
- Assay: Primary qHTS to identify gynecologic anti-cancer compounds using libraries of approved drugs and bioactive compounds (AID 1345084); further: nearly all actives have a fitted effect of over 55% in size
- Experimental Context: Gynecologic cancer cell panel viability, ATPlite luminescence, 48 h; series mostly up to 57.5 µM
Inconclusive results are not listed. Activity calls are given as the source filed them. Calls come from the whole dose curve; as a rule, active = well fitted cell-killing curve with a large enough effect; inconclusive = small, poorly fitted or top-dose-only effect, or effect the other way; inactive = flat fitted curve, though single readings scatter.
Answer with one of the outcomes Yes for active, No for inactive

# Compound, Group
rows = [
    ("CN1Cc2c(ccc3c2OCO3)[C@@H]2[C@H]1c1cc3c(cc1C[C@@H]2O)OCO3", "Yes"),
    ("N#Cc1ccc(N2CCN(C(=O)COc3ccc4[nH]cc(CCN)c4c3)CC2)cc1", "No"),
]

Query string: What was the test verdict on CC1CCCCCC(=O)c2c(O)cc(O)cc2CC(=O)O1 (centres undefined) ?
Result string: No

Query string: Let us now turn to CNC(=O)c1cc(C#N)cc(C)c1NC(=O)c1cc(Br)nn1-c1ncccc1Cl
Result string: No

----------
- Tested on: HEK293
- Assay: Cytotoxic Profiling of Annotated Libraries Using Quantitative High-Throughput Screening (AID 1296008); further: potency means the concentration at half of the fitted maximal effect; nearly all actives have a fitted effect of over 60% in size
- Experimental Context: Five cell lines viability, CellTiter-Glo ATP luminescence, 48-72 h
Inconclusive results are not listed. Active and inactive are the calls of the source. The call rests on the fitted dose curve; in most records, active means well fitted inhibition curve with a large enough effect; inconclusive means small, poorly fitted or top-dose-only effect; inactive means flat fitted curve, though single readings scatter.
Metric Name: Potency

Reference set, count: 5
# Compound, Observed
data = [
    ("CC1=CC2OC3[C@H](O)C[C@@](C)([C@]34CO4)[C@@]2(CO)[C@H](O)C1=O (stereo partly drawn)", "1640 nM (active)"),
    ("C[C@@H]1O[C@@H](OC2CCC3(C=O)C(CCC4C3CCC3(C)C(C5=CC(=O)OC5)C(O)CC43O)C2)[C@H](O)[C@H](O)[C@H]1O[C@@H]1O[C@H](CO)[C@@H](O)[C@H](O)[C@H]1O (stereo partly drawn)", "3850 nM (active)"),
    ("CO[C@H]1[C@H](O)[C@H](O[C@H]2CC[C@]3(C=O)C4CC[C@]5(C)[C@H](C6=CC(=O)OC6)CC[C@]5(O)C4CC[C@@H]3C2)O[C@@H](C)[C@@H]1O (stereo partly drawn)", "50.2 nM (active)"),
    ("C/C(=C\\c1csc(C)n1)[C@@H]1C[C@@H]2O[C@@H]2CCC[C@H](C)[C@H](O)[C@@H](C)C(=O)C(C)(C)[C@@H](O)CC(=O)O1", "6.5 nM (active)"),
    ("CCCCCCC1C(=O)O[C@H](C)[C@H](NC(=O)c2cccc(NC=O)c2O)C(=O)O[C@@H](C)[C@@H]1OC(=O)CC(C)C (stereo partly drawn)", "164 nM (active)"),
]

Query string: Query: Potency; subject: CC[C@@H]1/C=C/C=C/C[C@H](C)C(O)[C@](C)(O)C(=O)[C@H](C)C(O)[C@H](C)C(=O)[C@H](C)[C@@H](O)[C@H](C)/C=C/C(=O)O[C@H]2[C@@H](C)[C@@H](CC1)O[C@]1(O[C@H](C[C@H](C)O)[C@H](C)CC1=O)[C@@H]2C (stereo partly drawn)
Result string: 17.4 nM (active)

Query string: Next up: CCCCN1[C@@H]2CC[C@H]1CC(OC(c1ccc(F)cc1)c1ccc(F)cc1)C2 (stereo partly drawn)
Result string: 23100 nM (active)

Query string: Then this compound: C[C@H]1C/C=C/[C@H]2[C@@H]3O[C@]3(C)[C@@H](C)[C@H]3[C@H](Cc4ccccc4)NC(=O)[C@]32OC(=O)O/C=C/[C@@](C)(O)C1=O
Result string: 399 nM (active)

Query string: Would you mind doing C[C@@H]1C[C@@H](O)[C@]2(O)O[C@@H]3C[C@@]4(C=O)C(CC[C@@H]5C4CC[C@]4(C)[C@@H](C6=CC(=O)OC6)CC[C@]54O)C[C@H]3O[C@@H]2O1 (stereo partly drawn) as well?
Result string: 44.7 nM (active)

Query string: Would you mind doing COc1cc(C(=O)N2CC[C@@H](O)[C@@H](N)C2)cc2nc(-c3cc4ccccc4n3CC3CC3)n(C)c12 as well?
Result string: 14800 nM (active)

Query string: Ok, now CNc1ccc2oc(C[C@H]3O[C@@]4(CC[C@H]3C)O[C@H](C(C)C(=O)c3ccc[nH]3)[C@H](C)C[C@H]4C)nc2c1C(=O)O (stereo partly drawn)
Result string: 1300 nM (active)

Query string: // query: C=C1[C@@H](C)[C@H]2[C@H](Cc3ccccc3)NC(=O)[C@]23[C@H](OC(C)=O)/C=C/[C@](C)(O)C(=O)[C@@H](C)C/C=C/[C@H]3[C@@H]1O
Result string: 731 nM (active)
